tested_on: T1, hen egg-white lysozyme (hen, UniProt P00698 19-147)
T1 construct: also called HEL
experiment_summary: fluorescence titration in solution, 0.3 µM conjugate, buffer C, 25 °C
# key: entry, value: ΔF∞/F0 (maximal relative variation of fluorescence on HEL binding)
Response field accepts a number only; no unit should be typed.

{"binder": "H4S conjugate, IANBD fluorophore coupled at position Leu31 (designed binder, Cys at position 31 (H4S numbering) coupled to IANBD ester (ANBD)) MRGSHHHHHHGSVKVKFFWNGEEKEVDTSKIVWVKRAGKSVCFIYDDNGKNGYGDVTEKDAPKELLDMLARAEREKKLN", "observed_result": 4.9}
{"binder": "H4S conjugate, IANBD fluorophore coupled at position Ser29 (designed binder, Cys at position 29 (H4S numbering) coupled to IANBD ester (ANBD)) MRGSHHHHHHGSVKVKFFWNGEEKEVDTSKIVWVKRAGKCVLFIYDDNGKNGYGDVTEKDAPKELLDMLARAEREKKLN", "observed_result": 0.55}
{"binder": "H4S conjugate, IANBD fluorophore coupled at position Asn40 (designed binder, Cys at position 40 (H4S numbering) coupled to IANBD ester (ANBD)) MRGSHHHHHHGSVKVKFFWNGEEKEVDTSKIVWVKRAGKSVLFIYDDNGKCGYGDVTEKDAPKELLDMLARAEREKKLN", "observed_result": 0.57}

Continue with the binder presented below.
Could you share which ΔF∞/F0 (maximal relative variation of fluorescence on HEL binding) value was measured for H4S(K24ANBD) (designed binder, Cys at position 24 (H4S numbering) coupled to IANBD ester (ANBD), also called H4S(Lys24ANBD); Lys24) MRGSHHHHHHGSVKVKFFWNGEEKEVDTSKIVWVCRAGKSVLFIYDDNGKNGYGDVTEKDAPKELLDMLARAEREKKLN ?
8.8

FYI, the data here is from patent EP2469278A1.
